Data provenance is paper PMC10709327.

# experiment notes: in vitro
# run parameters: mouse, plasma
Where a SMILES comes first, the peptide text is derived from it. [ ]: non-standard residue; d: D form. pGlu = O=C1CC[C@@H](C(=O)O)N1
This section presents molecules with their documented half-life at 10 µM values.

molecule	half-life at 10 µM
CSCC[C@H](NC(=O)[C@H](CC(C)C)NC(=O)CNC(=O)[C@H](Cc1ccccc1)NC(=O)[C@H](Cc1ccccc1)NC(=O)[C@H](CCC(N)=O)NC(=O)[C@H](CCC(N)=O)NC(=O)[C@@H]1CCCN1C(=O)[C@H](CCCCN)NC(=O)[C@@H]1CCCN1C(=O)[C@@H](N)CCCN=C(N)N)C(N)=O	4.5 min
CSCC[C@H](NC(=O)[C@H](CC(C)C)NC(=O)CNC(=O)[C@H](Cc1ccccc1)NC(=O)[C@H](Cc1ccccc1)NC(=O)[C@@H]1CCC(=O)N1)C(N)=O [CAP-TAC1] ([pGlu]FFGLM-NH2)	17.1 min
